ASSAYED SYSTEM: SfurOBP11 (Sogatella furcifera, UniProt V5T6E3)
Sequence (V5T6E3 entry or part of it): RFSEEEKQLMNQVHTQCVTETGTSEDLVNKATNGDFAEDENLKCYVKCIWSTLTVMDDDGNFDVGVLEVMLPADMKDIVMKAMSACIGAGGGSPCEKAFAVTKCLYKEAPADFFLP
TEST NAME: biochemical
Type: binding
MEASUREMENT SETUP: ligand concentration 18, replicate 2
Kindly return yes if reported Fluorescence intensity, fluorescence competitive binding assay, OBP11 is no lower than 20000; return no if it is lower.

> print(dat)
                                    molecule                            assayed.system  class.assignment
 1                           COC(=O)c1ccccc1  SfurOBP11 (Sogatella furcifera, UniProt V5T6E3)               yes
 2  C=CC(C)(O)CCC=C(C)CCC=C(C)C (mixture of isomers)  SfurOBP11 (Sogatella furcifera, UniProt V5T6E3)               yes
 3                            c1ccc2ccccc2c1  SfurOBP11 (Sogatella furcifera, UniProt V5T6E3)               yes
 4     C=C1CC/C=C(\C)CC[C@@H]2[C@@H]1CC2(C)C  SfurOBP11 (Sogatella furcifera, UniProt V5T6E3)               yes
 5                          Cc1ccc(C(C)C)cc1  SfurOBP11 (Sogatella furcifera, UniProt V5T6E3)               yes
 6             C=C/C(C)=C/C/C=C(\C)CCC=C(C)C  SfurOBP11 (Sogatella furcifera, UniProt V5T6E3)               yes
 7                               CCCCCCCCC=O  SfurOBP11 (Sogatella furcifera, UniProt V5T6E3)               yes
 8                               O=Cc1ccccc1  SfurOBP11 (Sogatella furcifera, UniProt V5T6E3)                no
 9                            CC(=O)c1ccccc1  SfurOBP11 (Sogatella furcifera, UniProt V5T6E3)               yes
10                        CCCCCCCCCCCCCCCCCC  SfurOBP11 (Sogatella furcifera, UniProt V5T6E3)               yes
11          Cc1cc(C(C)(C)C)c(O)c(C(C)(C)C)c1  SfurOBP11 (Sogatella furcifera, UniProt V5T6E3)                no

---

ASSAYED SYSTEM: SfurOBP11 (Sogatella furcifera)
TEST NAME: biochemical
Type: binding
MEASUREMENT SETUP: ligand concentration 4, replicate 3
PROPERTY NAME: Fluorescence intensity, fluorescence competitive binding assay, OBP11

> print(dat)
                                    compound                   assayed.system  result
 1                       CCCCCCCCCCCCCCCCCCC  SfurOBP11 (Sogatella furcifera)   36494
 2  C=C(C)C1CC=C(C)CC1 (single isomer, unassigned; (+)) [(+)-limonene]  SfurOBP11 (Sogatella furcifera)   19404
 3  C/C(=C\CO)CCC[C@H](C)CCC[C@H](C)CCCC(C)C  SfurOBP11 (Sogatella furcifera)   17848
 4                            CC(=O)c1ccccc1  SfurOBP11 (Sogatella furcifera)   27262
 5     C=C1CC/C=C(\C)CC[C@@H]2[C@@H]1CC2(C)C  SfurOBP11 (Sogatella furcifera)   25482
 6                          CCCCCCCCCCCCCCCC  SfurOBP11 (Sogatella furcifera)   20733
 7                CCC/C=C/CO [(E)-2-hexenol]  SfurOBP11 (Sogatella furcifera)   31807
 8                               CCCCCCCCC=O  SfurOBP11 (Sogatella furcifera)   30749
 9  CCCCCCCCCCCCCCCC(=O)OC [MH(methyl hexadecanoate)]  SfurOBP11 (Sogatella furcifera)   33112
10                CC/C=C\CCO [(Z)-3-hexenol]  SfurOBP11 (Sogatella furcifera)   21783
11                     CCCCCCCCCCOCCCCCCCCCC  SfurOBP11 (Sogatella furcifera)   44324
